biological target: human CYP11B2 (Homo sapiens); assay: Inhibition of hCYP11B2 in transfected V79 cells; conditions: hamster V79 cells expressing human CYP11B2; substrate 11-deoxycorticosterone 200 nM
Sequence (P19099 25-503): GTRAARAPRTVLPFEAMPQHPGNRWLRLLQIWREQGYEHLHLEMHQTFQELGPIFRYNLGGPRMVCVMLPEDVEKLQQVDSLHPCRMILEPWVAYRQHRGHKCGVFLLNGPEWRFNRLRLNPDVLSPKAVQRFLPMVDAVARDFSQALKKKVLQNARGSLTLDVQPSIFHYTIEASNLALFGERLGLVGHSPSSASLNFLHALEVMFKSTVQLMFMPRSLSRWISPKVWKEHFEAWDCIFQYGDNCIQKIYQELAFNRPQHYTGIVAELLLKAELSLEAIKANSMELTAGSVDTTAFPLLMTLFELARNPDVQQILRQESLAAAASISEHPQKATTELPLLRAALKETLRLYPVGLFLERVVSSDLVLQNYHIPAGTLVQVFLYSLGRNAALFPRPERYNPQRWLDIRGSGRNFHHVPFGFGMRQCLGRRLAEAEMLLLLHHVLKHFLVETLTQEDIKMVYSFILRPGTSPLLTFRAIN
pIC50: −log10 of the molar value.
measured property: pIC50

N#Cc1ccc(-c2cncc3c2OCCN3S(=O)(=O)c2cccc3cccnc23)cc1 : 9.60
N#Cc1ccc(-c2cncc3c2CCN3C(=O)Cc2ccc(Cl)cc2)cc1 : 8.10
O=C(c1ccccc1F)N1CCc2c(-c3ccc4occc4c3)cncc21 : 6.95

I. N#Cc1ccc(-c2cncc3c2SCCN3C(=O)c2cccnc2)cc1
II. N#Cc1ccc(-c2cncc3c2ccn3S(=O)(=O)c2cccc3ccccc23)cc1
III. O=S(=O)(C1CNC1)N1CCSc2c(-c3cc4cc(Cl)ccc4o3)cncc21
IV. N#Cc1ccc(-c2cncc3c2OCCN3C(=O)C(F)(F)F)cc1
Ascending sort, pIC50. Thanks in advance for listing the labels in the requested order.
I, III, IV, II
(I: 7.06, III: 8.14, IV: 9.05, II: 9.40)
